Sourced from the supplement of paper PMC10065799

target: Hck (UniProt P08631); test: phosphorylation enrichment, bacterial display (enrichment ratio); higher = better substrate or ligand; peptides without Tyr show the background;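 note: 11-residue human phosphosite peptides and single-mutation variants displayed on the E. coli surface, counted by deep sequencing, each peptide's frequency after selection divided by its frequency in the unselected input library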;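 note: frequency after pTyr selection over input frequency; kinase dosed for 20-30% of maximal phosphorylation in three min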
Sequence (P08631 whole entry, looked up): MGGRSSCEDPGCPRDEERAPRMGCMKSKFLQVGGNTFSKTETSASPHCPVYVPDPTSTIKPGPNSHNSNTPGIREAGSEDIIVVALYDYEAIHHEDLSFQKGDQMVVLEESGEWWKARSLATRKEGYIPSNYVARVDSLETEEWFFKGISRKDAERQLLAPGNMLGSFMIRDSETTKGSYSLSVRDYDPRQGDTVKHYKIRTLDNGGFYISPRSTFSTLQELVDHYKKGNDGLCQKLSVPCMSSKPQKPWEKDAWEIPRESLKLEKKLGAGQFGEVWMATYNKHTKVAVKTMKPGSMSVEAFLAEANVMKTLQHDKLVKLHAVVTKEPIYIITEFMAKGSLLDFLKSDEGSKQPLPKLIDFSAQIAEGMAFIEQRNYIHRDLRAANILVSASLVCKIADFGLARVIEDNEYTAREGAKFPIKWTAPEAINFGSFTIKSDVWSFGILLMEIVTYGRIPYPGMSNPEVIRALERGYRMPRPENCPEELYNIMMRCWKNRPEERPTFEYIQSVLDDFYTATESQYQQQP
Value Type: phosphorylation enrichment

[[record]]
residue_sequence = "SIKHKYVTALY [KCNH2_Y611_D609H]"
reported = 0.524

[[record]]
residue_sequence = "GVLKEYVVKVL [CPS1_Y529_G530V]"
reported = 0.386

[[record]]
residue_sequence = "ATPKGYERDAS [OTC_Y223_P225R]"
reported = 0.399

[[record]]
residue_sequence = "EAGKVYLKAPM [CBFB_Y96]"
reported = 0.496

[[record]]
residue_sequence = "FIATQYSLCPR [LBR_Y166_R169C_YF]"
reported = 0.749

[[record]]
residue_sequence = "IHETTYKSIMK [ACTA1_Y281_N282K]"
reported = 0.359

[[record]]
residue_sequence = "KAIDMYLMGCF [GABRB2_Y308]"
reported = 0.535

